Values from PubChem BioAssay (NCI)

Test system: OVCAR-8 ovarian
protocol: NCI tumour cell line growth inhibition, 48 h; in the data active = GI50 below about 0.43 µM; inactive = the rest
Where a SMILES comes first, the peptide text is derived from it. The star is where a group is joined. Trt = c1ccc(C(c2ccccc2)(c2ccccc2)*)cc1; Cbz = O=C(OCc1ccccc1)*
I would appreciate it if you answered using one of these outcomes: active, inactive

Field: outcome | Entry: COc1cc(/C=N/NC(=O)c2ccccc2Nc2cccc(C(F)(F)F)c2)cc(OC)c1OC
inactive

Returns: the outcome recorded for COc1ccc(C(=O)c2cc3c(N)c(C(=O)Nc4cccc(OC)c4)sc3nc2C)cc1 in this assay.
inactive

State the result this test recorded for COC(=O)C(CSC(c1ccccc1)(c1ccccc1)c1ccccc1)NC(=O)C(CC(N)=O)NC(=O)OCc1ccccc1 (stereo not drawn) (Cbz-Asn-Cys(Trt)-OMe; configuration not given here) .
inactive

Next:
Which outcome was entered for the molecule NS(=O)(=O)c1ccc(NC(=O)c2cccc(NC3=C(Cl)C(=O)N(Cc4ccccc4)C3=O)c2)cc1 in this test?
inactive

Recorded test outcome, item C=CC(C)(O)CC/C=C(\CO)C(=O)OC1C(C)OC(O[C@](C)(C=C)CC/C=C(\CO)C(=O)O[C@H]2C[C@@]3(C(=O)OC4OC(CO)C(O)C(O)C4OC4OC(C)C(OC5OC(CO)C(O)C5O)C(OC5OC(CO)C(O)C(O)C5O)C4O)C(CC2(C)C)C2=CCC4[C@@]5(C)CC[C@H](OC6OC(COC7OC(C)C(O)C(O)C7OC7OCC(O)C(O)C7O)C(O)C(O)C6NC(C)=O)C(C)(C)C5CC[C@@]4(C)[C@]2(C)C[C@H]3O)C(O)C1O (stereo partly drawn)
active

Can you look up the reported call for Nc1c(C(=O)Nc2cccc3ccccc23)sc2nc3c(cc12)C(=O)CCC3 for me?
inactive

Which outcome was entered for the molecule COc1ccc(-c2nc(C(=O)c3ccccc3)n(CC(=O)c3ccc(Cl)cc3)c2-c2ccc(OC)cc2)cc1 in this test?
inactive

Query: recorded result category for O=C(c1ccc2ccccc2c1)c1c(C(F)(F)F)n([O-])c2ccc(F)cc2[n+]1=O in this test
active

---

A collection of molecules and their measured TGI
Test system: LOX IMVI melanoma
protocol: NCI tumour cell line growth inhibition, 48 h

Consider the reported TGI for these molecules:
Can you look up the measured TGI of COC(=O)C(C(=O)C(N)=O)c1csc(-n2nc(-c3ccccc3)cc2-c2ccccc2)n1 (centres undefined) for me?
> 100 µM

Which TGI reading was recorded for the molecule Cc1ccc2c(c1C)C(=O)/C(=C/c1cccc(C)c1C(=O)O)C2 ?
> 90.7 µM

Item O=CCCCC(Sc1ccccc1)Sc1ccccc1 has what recorded TGI?
26.6 µM

Data request, read-out TGI, for CC/C(N)=N\NC(=O)OC(C)(C)C
> 100 µM

What value of TGI has been recorded for this entry: O=Cc1ccc(N2CCN(c3ccc(C=O)cc3)CC2)cc1
> 100 µM

Fill in: TGI of Cc1ccc(/C=N/NS(=O)(=O)c2ccccc2)c(C)c1 is ___
> 100 µM

Fill in the blank: the reported TGI of C[C@H](CCC(=O)NCC(=O)O)[C@H]1CC[C@H]2[C@@H]3[C@H](O)C[C@@H]4C[C@H](O)CC[C@]4(C)[C@H]3CC[C@]12C is ____.
> 100 µM

May I ask what TGI has been recorded for N#C/C(=C\c1ccc2[nH]ccc2c1)C(=O)c1ccc(O)c(O)c1 ?
> 100 µM

More entries:
Could you tell me which TGI is on file for O=C1C=C(N2CCN(CCOCCO)CC2)C(=O)c2c(O)ccc(O)c21 ?
6.62 µM

I would be grateful if you could share the reported TGI for COc1ccccc1NC(=S)N/N=C/c1cccc(C)n1 .
> 100 µM

Given the entry COc1cc(Cn2c(-c3ccccc3)cc3c2-c2oncc2CC3)cc(OC)c1 , report its measured TGI.
> 100 µM

For the molecule c1ccc(-c2ccnc3c2ccc2c(-c4ccccc4)ccnc23)cc1 , what TGI is on record?
14.8 µM

Item COc1cc(C(C#N)NNc2nc(C)cc(=O)[nH]2)cc(OC)c1OC (centres undefined) has what recorded TGI?
> 100 µM

Any idea what its TGI is? The molecule is Cc1ccccc1NC(=O)Cc1csc(N=Nc2c(O)[nH]c3ccccc23)n1
> 100 µM

Record request: TGI value, item C=CCNC(=S)/N=C/C(C(=O)Nc1ccccc1C)=C(\C)O
> 100 µM

May I ask what TGI has been recorded for Cc1ccc(-c2n[nH]c(=O)c3noc(-c4ccc(C)cc4)c23)cc1 ?
> 100 µM

Returns the measured TGI for the input molecule. Input: O=C1c2cc([N+](=O)[O-])sc2C(=O)c2c([N+](=O)[O-])csc21
0.269 µM

Item under review: Oc1ccc(Cl)cc1/C=N\NC(=S)N/N=C/c1cc(Cl)ccc1O . Reported TGI?
> 100 µM

TGI lookup needed for NS(=O)(=O)c1ccc(NC(=O)c2cccc(NC3=C(Cl)C(=O)N(Cc4ccccc4)C3=O)c2)cc1 , thanks.
16.1 µM

Record request: TGI value, item Cc1ccc(S[C@@H](C)[C@@](O)(C(N)=O)c2ccccc2)cc1
33.7 µM
